ASSAY_PROCEDURE: yeast display, Sf9 membrane polyspecificity reagent, FACS + sequencing; frameworks hold sequencing errors
MEASURED_METRIC: polyreactivity (PSR sort gate)

Solved cases below.
# ENTRY_SEQUENCE, polyreactivity (PSR sort gate)
records = [
    ("QVQLVESGGGLVQAGGSLRLSCAASGRTFRYYTMGWYRQAPGKEREFVAAISSTGGTYYADSVKGRFTISRDNAKNTVYLQMNSQKPEDTAVYYCAATVIQVVVNVQLYDYDYWGQGTEVTVSS", "low polyreactivity"),
    ("QVQLVESGGGLVQAGGSLRLSCAASGRIIFAYTMGWYRQAPGKERELVAAISSSGSTYYADSVKGRFTISRDNAKNTVYLQMNSLKPEDTAVYYLRVQRRAYRYDYWGQGTQVTVTS", "high polyreactivity"),
    ("QVQLVESGGGLVQAGGSLRLSCAGSGITFYWYAMGWDRQAPGKERELVAGISQSGSRTYYADSVKGRFTISRDNAKNTVYLQMNSLKPEDTAVYYCAARVRWSPTRTFEYWGQGTQVTVSS", "high polyreactivity"),
    ("QVQLVESGGGLVQAGGSLRLSCAASGITLNGYVMGWYRQAPGKEREFVAVISSRGGSTYYADSVKGRFTISRDNAKNTVYLQMNSLKPEDTAVYYCAARWGYSRRGYRGYDYWGQGTQVTVSS", "high polyreactivity"),
    ("QVQLVESGGGLVQAGGSLRLSCAASGSTFYSNAMGWYRQAPGKERELVAAISYSGGRTYYADSVKGRFTISRDNAKNTVFLQMNSLKPEDTAVYYCNKAYRRYIWHMDYWGQGTQVTVSS", "high polyreactivity"),
]

Asked: // query polyreactivity (PSR sort gate) value for entry "QVQLVESGGGLVQAGGSLRLSCAASGRTFHAYAMGWYRQAPGKGRELVAAITRTGTTHYADSVKGRFTISRDNAKNTVYLQMNSLKPEDTAVYYCAAQHVRVDAQFVLQGYDYWGQGTQVTVSS"
Given back: low polyreactivity

Asked: // query polyreactivity (PSR sort gate) value for entry "QVQLVDSCGGLVQAGGSLRLSCHASGLTFFANAMGWYRQEHGKERELVAAITRRGGSTYYADSVKGRFTNSRDNAKNTVYLQMNSLKPEDTAVYYCAAEPRSVPAQYRSGDYWGQGTQVTVSS"
Given back: high polyreactivity

Asked: // query polyreactivity (PSR sort gate) value for entry "QVQLVESGGGLVQAGGSLRLSCAASGSTFSRYAMGWYRQAPGKEREFVAAISRRAGGTYYADSVKGRFTISRDNAKNTVYLQMNSVKPEDTAVYYCAKVLPRDYIGRATYDYWGQGTQVTVSS"
Given back: high polyreactivity

Asked: // query polyreactivity (PSR sort gate) value for entry "QVQLVESGGGLVQAGGSLRLSCAASGYNFYINPMGWYRQAPGKERELVATIRRRGGSTYYADSVKGRFTISRDNAKNTVYLQMNSLKPEDTAVYYCNAVTLGGKYVYQYRRGFDYWGQGTQVTVSS"
Given back: high polyreactivity

Asked: // query polyreactivity (PSR sort gate) value for entry "QVQLVDSGGGLVQAGGSHRLSCAASGFTFPYNAMGWYRQAPGKERELVAANSSTGGITYYADSVKGRFTISRDNAKNTVYLQMNSLKPEDTAVYYCGWYDYWGQGTQVTVSS"
Given back: low polyreactivity

Asked: // query polyreactivity (PSR sort gate) value for entry "QVQLVESGGGLVQAGGSLRLSCAASGSTFSDYVMGWYRQAPGKERELVAAISWSGDRTYYADSVKGRFTISRDNAKNTFYLQMNSLKPEDTAVYYCAAEYAPSDPSYYYGYDYWGQGTQVTVSS"
Given back: high polyreactivity
